Data provenance: paper PMC11133627

test system: E. coli clinical isolate E12; experiment: microbe, parasite or virus in culture; format: cell-based, Escherichia coli; settings: clinical isolate E12, 24 h
Ends that are not written are not given here.
property: MBC against E. coli E12 (µg/mL)

macromolecule-sequence	property	quantity-unit	number
RFGRHLRKIIRFRIK [C2-3]	MBC against E. coli E12	µg/mL	1
RFGRFLRKIRRMRLK [C2-2]	MBC against E. coli E12	µg/mL	2
RFGRNLRKIRRFWPK [C2-4]	MBC against E. coli E12	µg/mL	32
RFGRFLRKIRFFRLK [C2-5]	MBC against E. coli E12	µg/mL	8
RFGRFLRKIRRFRPK [CATH-2 (1-15), reference compound]	MBC against E. coli E12	µg/mL	8
RFGRFLRKIRRFIPK [C2-1]	MBC against E. coli E12	µg/mL	1

###

tested on: E. coli clinical isolate E14; test: microbe, parasite or virus in culture; type: cell-based, Escherichia coli; settings: clinical isolate E14, 18 h
Ends that are not written are not given here.

macromolecule-sequence	MIC against E. coli E14
RFGRHLRKIIRFRIK [C2-3]	8 µg/mL
RFGRFLRKIRFFRLK [C2-5]	8 µg/mL
RFGRFLRKIRRFRPK [CATH-2 (1-15), reference compound]	64 µg/mL
RFGRFLRKIRRFIPK [C2-1]	16 µg/mL
RFGRFLRKIRRMRLK [C2-2]	8 µg/mL
RFGRNLRKIRRFWPK [C2-4]	32 µg/mL

###

List of MBC against E. coli E18 values.
tested on: E. coli clinical isolate E18; assay: microbe, parasite or virus in culture; format: cell-based, Escherichia coli; conditions: clinical isolate E18, 24 h
Ends that are not written are not given here.

macromolecule-sequence	MBC against E. coli E18 (µg/mL)
RFGRHLRKIIRFRIK [C2-3]	32
RFGRFLRKIRFFRLK [C2-5]	32
RFGRFLRKIRRMRLK [C2-2]	4
RFGRFLRKIRRFRPK [CATH-2 (1-15), reference compound]	64
RFGRNLRKIRRFWPK [C2-4]	128
RFGRFLRKIRRFIPK [C2-1]	4

###

system: E. coli (ATCC 8739); experiment: microbe, parasite or virus in culture; assay type: cell-based, Escherichia coli; conditions: ATCC 8739, 24 h
Ends that are not written are not given here.
property: MBC against E. coli ATCC 8739 (µg/mL)

macromolecule-sequence	property	quantity-unit	number
RFGRFLRKIRRFRPK [CATH-2 (1-15), reference compound]	MBC against E. coli ATCC 8739	µg/mL	64
RFGRFLRKIRFFRLK [C2-5]	MBC against E. coli ATCC 8739	µg/mL	1
RFGRFLRKIRRMRLK [C2-2]	MBC against E. coli ATCC 8739	µg/mL	8
RFGRFLRKIRRFIPK [C2-1]	MBC against E. coli ATCC 8739	µg/mL	4
RFGRNLRKIRRFWPK [C2-4]	MBC against E. coli ATCC 8739	µg/mL	16
RFGRHLRKIIRFRIK [C2-3]	MBC against E. coli ATCC 8739	µg/mL	16
